List of H1.0 immunofluorescence intensity values.
- Test system: TDF;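 further: TDF is a line of transformed human dermal fibroblasts of mesenchymal origin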
- measurement-description: H1.0 immunofluorescence intensity relative to DMSO (% of DMSO); higher = stronger H1.0 induction, active = 120 or more
- condition-parameters: concentration: 10 µM; 24 h

- molecule: "Cl.Oc1ccc(Nc2nc(-c3ccc(Cl)cc3)cs2)cc1"
  H1.0 immunofluorescence intensity: 110
- molecule: "Cc1c(-c2cnccn2)ssc1=S"
  H1.0 immunofluorescence intensity: 97.9
- molecule: "NC(C(=O)NC1C(=O)N2C(C(=O)O)=C(Cl)CSC12)c1ccccc1 (stereo not drawn)"
  H1.0 immunofluorescence intensity: 103
- molecule: "CC1OC(OC2C(O)CC(OC3C(O)CC(OC4CCC5(C)C(CCC6C5CCC5(C)C(C7=CC(=O)OC7)CCC65O)C4)OC3C)OC2C)CC(O)C1O (stereo not drawn)"
  H1.0 immunofluorescence intensity: 127
- molecule: "N#Cc1cccc(-c2c[nH]c3ncnc(N4CCOCC4)c23)c1 [3-(4-morpholino-7H-pyrrolo[2,3-d]pyrimidin-5-yl)benzonitrile]"
  H1.0 immunofluorescence intensity: 86.3
- molecule: "CCCCC=CCCCCCCCC(=O)O [9(Z)-Tetradecenoic acid]"
  H1.0 immunofluorescence intensity: 104
- molecule: "Cl.Cl.NCCNS(=O)(=O)c1cccc2cnccc12 [H-9 dihydrochloride]"
  H1.0 immunofluorescence intensity: 107
- molecule: "O=C(OC1CC2CC3CC(C1)N2CC3=O)c1c[nH]c2ccccc12 (stereo not drawn)"
  H1.0 immunofluorescence intensity: 102

Hello, the source for this data is the supplement of paper PMC7156485, in case you need it.
